Biological target: USP8^CD (purified catalytic domain of USP8) (Homo sapiens)
Construct: the purified catalytic domain of USP8 (USP8^CD, in-house purified); made in house; host or cells: E. coli BL21 Gold
Sequence (P40818 777-1109 limits assumed): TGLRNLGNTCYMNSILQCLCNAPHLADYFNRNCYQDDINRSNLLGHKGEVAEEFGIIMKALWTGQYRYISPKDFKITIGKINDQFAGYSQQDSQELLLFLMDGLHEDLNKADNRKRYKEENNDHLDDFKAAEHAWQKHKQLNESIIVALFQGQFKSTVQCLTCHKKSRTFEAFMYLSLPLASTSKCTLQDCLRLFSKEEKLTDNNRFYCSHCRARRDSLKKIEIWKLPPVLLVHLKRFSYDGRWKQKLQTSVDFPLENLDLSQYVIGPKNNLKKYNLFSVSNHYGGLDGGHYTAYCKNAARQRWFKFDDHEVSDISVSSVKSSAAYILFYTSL
Experiment: Inhibition of purified USP8^CD enzymatic activity (Ub-AMC or Ub-Rho substrate)
Assay type: biochemical
Conditions: 0.01 μM compound; Table 1d
Value type: inhibition at 0.01 µM (%)

{"Test smiles": "O=C1c2ccccc2C(=O)c2nc(CS(=O)(=O)c3ccccc3F)c(CS(=O)(=O)c3ccccc3F)nc21", "Measurement units": "%", "inhibition at 0.01 µM": -25}
{"Test smiles": "CCCCCS(=O)(=O)Cc1nc2c(nc1CS(=O)(=O)CCCCC)C(=O)c1ccccc1C2=O", "Measurement units": "%", "inhibition at 0.01 µM": 19}

[A] COc1ccc(S(=O)(=O)Cc2nc3c(nc2CS(=O)(=O)c2ccc(OC)c(OC)c2)C(=O)c2ccccc2C3=O)cc1OC
[B] CCS(=O)(=O)Cc1nc2c(nc1CS(=O)(=O)CC)C(=O)c1ccccc1C2=O
[C] O=C1c2ccccc2C(=O)c2nc(CS(=O)(=O)c3cccc(F)c3)c(CS(=O)(=O)c3cccc(F)c3)nc21
[D] O=C1c2ccccc2C(=O)c2nc(CS(=O)(=O)c3cccc(Cl)c3)c(CS(=O)(=O)c3cccc(Cl)c3)nc21
Arrange the 4 entries by inhibition at 0.01 µM so the values rise. Please respond by ranking the labels in the order requested.
C, B, A, D

[A] CCCS(=O)(=O)Cc1nc2c(nc1CS(=O)(=O)CCC)C(=O)c1ccccc1C2=O
[B] CS(=O)(=O)Cc1nc2c(nc1CS(C)(=O)=O)C(=O)c1ccccc1C2=O
Would you mind telling me which has the lower recorded inhibition at 0.01 µM between A and B ? Answer by quoting the chosen item's label.
A

[I] O=C1c2ccccc2C(=O)c2nc(CS(=O)(=O)c3ccc4c(c3)OCCO4)c(CS(=O)(=O)c3ccc4c(c3)OCCO4)nc21
[II] COc1ccc(S(=O)(=O)Cc2nc3c(nc2CS(=O)(=O)c2ccc(OC)cc2)C(=O)c2ccccc2C3=O)cc1
Smaller inhibition at 0.01 µM value? Options are I and II Identify your selection by its label.
I
(I: -22%, II: -7%)
